# Assay overview: yeast display, Sf9 membrane polyspecificity reagent, FACS + sequencing; frameworks hold sequencing errors
Endpoint: polyreactivity (PSR sort gate)

Example cases with answers are listed next.
QVQLVESGGGLFQAGGSLRLSCAASGLTFQRYDMGWYRQAPVKEIELVAAINYSGGRTYYADSVKGRFTISRDNAKNTVYLQMNSLKPEDTAVYYCAARVRNTYVYQSWDGMYYWGQGTQVTVSS = high polyreactivity
QVQLVESGGGLVQAGGSLRLSCAASGRIFVQNAMGWYRQAPGKEREVVAAISSRGTSTYYADSVKGRFTISRDNAKNTVYLQMNSLKPEDTALYYCAAREWRTFDYWGQGTQVTVSS = low polyreactivity
QVQLVESGGGLVQAGGSLRLSCAASGRTFHTYAMGWYRQAPGKERELVARITRSGTSTYYADSVKGRFTISRDNAKNTVYLQMNSLKPEDTAVYYCAKPWFLWGYSTSYDWGQGTQVTVSS = high polyreactivity
QVQLVESGGGLVQAGGSLRLSCAASGITFVRYAMGWYRQAPGKERELVAVISRGGITNYADSVKGRFTISRDNAKNTVYLQMNSLKPEDTAVYYCAVRGRSYVRTYDYWGQGTQVTVSS = high polyreactivity
QVQLVESGGGLVQPEGSLRLSSAASGRTFDYYALGWYRQAPGKERELVAAITWRGVSTYYADSVKGRFTISRDNAKNTVYLQMNSLKPEDTAVYYCAAYSYPYWQKRPYDYWGQGTQVTVSS = low polyreactivity

Output measured polyreactivity (PSR sort gate) for this item: `QVQLVESGGGLVQAGGSLRLSCAASGRIFAFYALGLYRQAPGKEREFVAAITYSGGNTNYADSVKGRFTISRDNAKNTVYLQMNSLKPEDTAVYYCAADLVYGVYYQEDYWGQGTQVTVSS`
low polyreactivity

Determine its reported polyreactivity (PSR sort gate): `QVQLVESGGGLVQAGGSLRLSCAASGSILWYYAMGWDRQAPGKERELVATITSGGSTYYADSVKGRFTISRDNAKNSVYLQMNSLKPEDTAVYYCNADLAVDEYDYWGQGTQVTVSS`
low polyreactivity

----------
# Assay overview: yeast display, Sf9 membrane polyspecificity reagent, FACS + sequencing; frameworks hold sequencing errors
Endpoint: polyreactivity (PSR sort gate)

QVQLVESGGGLVQAGGSLRLSCAASGFIFYYYAMGWYRQAPGKEREMFAAITQGGGSTYYADSVKGRFTISRDNAKNTVYFQMNSLKPEDTAVYYCAAVKRVYAHCRAFSSDFYYWGQGTQVNVSS = high polyreactivity
QVKLKESVGGLVQAGGSLRLSCAASGSISATGHMGWYRQAPGEERELVAAINFGSNTYYADSVKGLFTISRDNAINTVYLQKSGLKPEDTAVYYWAVDGWYVGPYYYWGQGTQVTVSS = high polyreactivity
QVQLVESGGGLVQAGGSLRLSCAASGSIFFYNAMGWYRQAPGKERELVAAISRGGSTYYADSVKGRFTISRDNAKNTVYLQMNSLKPEDTAVYYCAVQRRRNSNVLFDYWGQGTQVTVSS = high polyreactivity

----------
# Assay overview: yeast display, Sf9 membrane polyspecificity reagent, FACS + sequencing; frameworks hold sequencing errors
Endpoint: polyreactivity (PSR sort gate)

QDQLVESGGGLVQAGGSLRLSCAASGINLSAYAMGWYRQAPGKERELVARISRSGGRTYYADSVKGRFTISRDNAKNTVYLQRNSLKQDDTAVYYCAADYTYGFGLYFGFGYWGQGTKVTVSS = high polyreactivity
QVQLVESGGGLVQAGGSLRLSCAASGLTFRVYAMGWYRQAPGKERELVAAISKRGGSTYYADSVKGRFTISRDNAKNTVYLQMNSLKPEDTAVYYCAAEPPPYEYVYWGQGTQVTVSS = high polyreactivity
